Overview of recorded kon for various binders
Target System: T1, human TREM2-Fc (human, UniProt Q9NZC2 19-174)
T1 construct: also called hTREM2; not shown: Fc part (captured by anti-human IgG1 Fc or protein A)
T1 sequence: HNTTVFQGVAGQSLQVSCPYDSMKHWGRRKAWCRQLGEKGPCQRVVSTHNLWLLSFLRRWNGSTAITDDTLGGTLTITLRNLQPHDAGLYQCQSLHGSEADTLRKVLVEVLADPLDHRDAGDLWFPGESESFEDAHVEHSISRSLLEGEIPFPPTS
Measurement Description: SPR (Biacore T200), 37 C; TREM2-Fc on anti-human IgG1 Fc chip, Fab in solution

Binder	kon / M⁻¹ s⁻¹
Para.09 Fab with the 3.10C2 light chain (Fab, V domains shown, also called Para.09 (3.10C2)) VH: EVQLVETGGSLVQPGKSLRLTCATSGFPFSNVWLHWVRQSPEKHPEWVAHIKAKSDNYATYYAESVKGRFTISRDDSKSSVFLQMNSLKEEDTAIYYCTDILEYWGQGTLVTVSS VL: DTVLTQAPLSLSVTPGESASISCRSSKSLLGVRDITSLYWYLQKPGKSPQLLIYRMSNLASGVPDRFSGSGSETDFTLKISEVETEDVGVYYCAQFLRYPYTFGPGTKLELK	7.1e+06
Para.09 Fab with the 3.50G1 light chain (Fab, V domains shown, also called Para.09 (3.50G1)) VH: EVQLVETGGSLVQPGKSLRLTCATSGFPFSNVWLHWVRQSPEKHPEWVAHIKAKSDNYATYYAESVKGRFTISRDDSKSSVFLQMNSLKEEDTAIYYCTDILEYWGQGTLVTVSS VL: DTVLTQAPLSVSVTPGESASISCRSNKSLLGIRDITSLYWFLQKPGKSPQLLIYRMSNLASGVPDRFSGSGSETDFTLKISEVETEDVGVYYCAQFLRYPYTFGPGTKLELQ	5.1e+06
Para.09 Fab with the 3.27H7 light chain (Fab, V domains shown, Fab fragment; also called Para.09 (3.27H7); Para.09-L27H7) VH: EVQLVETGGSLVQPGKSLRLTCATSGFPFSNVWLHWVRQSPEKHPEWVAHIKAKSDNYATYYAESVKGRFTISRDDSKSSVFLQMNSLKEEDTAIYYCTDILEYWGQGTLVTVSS VL: DVVLTQAPLSVSVTPGESASISCRSSRSLLTSKGITSLYWYLQKPGMSPHLLIYRMSNLASGIPDRFSGSGSETDFTLKISEVEPEDVGVYYCAQFLVYPYTFGAGTKLELK	6.3e+06
3.10C2 Fab (Fab, V domains shown, also called 3.10C2 (3.10C2); Rat3.10C2) VH: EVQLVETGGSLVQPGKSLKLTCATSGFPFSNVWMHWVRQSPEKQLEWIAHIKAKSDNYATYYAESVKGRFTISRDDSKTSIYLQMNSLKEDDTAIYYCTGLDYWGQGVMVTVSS VL: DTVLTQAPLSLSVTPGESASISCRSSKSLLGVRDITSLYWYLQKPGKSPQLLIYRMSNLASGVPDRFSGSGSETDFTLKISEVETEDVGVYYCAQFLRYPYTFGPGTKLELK	850000
Para.09 Fab with the 3.18E5 light chain (Fab, V domains shown, also called Para.09 (3.18E5)) VH: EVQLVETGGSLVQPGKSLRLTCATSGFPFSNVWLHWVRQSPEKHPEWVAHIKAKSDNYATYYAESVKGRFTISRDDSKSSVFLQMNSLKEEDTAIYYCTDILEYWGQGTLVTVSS VL: DTVLTQAPLSVSVTPGESASISCRSNKSLLGIRDITSLYWYLQKPGKSPQLLIYRMSNLASGVPDRFSGSGSETDFTLKISEVETEDVGVYYCAQFLRYPYTFGPGTKLELK	5.6e+06
